- measurementTarget: T1, human GIP receptor (human, UniProt P48546 22-466)
- T1 sequence (looked up): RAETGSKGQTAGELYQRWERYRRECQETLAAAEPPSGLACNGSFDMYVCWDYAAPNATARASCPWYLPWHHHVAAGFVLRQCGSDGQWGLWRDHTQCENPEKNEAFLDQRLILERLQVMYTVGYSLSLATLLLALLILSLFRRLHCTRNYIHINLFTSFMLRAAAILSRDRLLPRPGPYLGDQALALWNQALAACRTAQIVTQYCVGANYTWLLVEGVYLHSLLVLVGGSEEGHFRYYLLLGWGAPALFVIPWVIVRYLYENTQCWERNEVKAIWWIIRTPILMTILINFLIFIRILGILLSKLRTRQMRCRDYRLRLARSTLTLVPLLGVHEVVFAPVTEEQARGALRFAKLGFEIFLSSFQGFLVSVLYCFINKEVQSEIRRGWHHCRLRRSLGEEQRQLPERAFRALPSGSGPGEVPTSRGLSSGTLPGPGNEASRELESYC
- assayRemarks: cell-based or functional assay
Bridges are numbered along the chain shown (N, C = ends). Where no end group is shown, it is not given here. [ ]: non-standard residue; d: D form. The star is where a group is joined. Acetyl(2-(4-imidazolyl)) = O=C(Cc1c[nH]cn1)*; Aib = CC(C)(N)C(=O)O
experimentalReadout: In vitro activity (%) vs. GIP, cAMP EC50

For orientation, consider the following solved cases.
> print(dat)
                                     binder  measurement
1  H[Aib]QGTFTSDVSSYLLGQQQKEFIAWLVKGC [triple agonist of SEQ ID NO: 4]       < 0.1%
2  {Acetyl(2-(4-imidazolyl))}-[Aib]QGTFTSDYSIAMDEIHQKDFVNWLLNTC (bridge 15-19) [triple agonist of SEQ ID NO: 87]       < 0.1%

Now examine the next entry.
For reference, reported In vitro activity (%) vs. GIP, cAMP EC50 for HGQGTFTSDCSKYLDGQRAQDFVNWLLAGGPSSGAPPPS [triple agonist of SEQ ID NO: 48] stands at < 0.1%
